Parameter: soluble fraction (log2). Scope: all listed entries.
# experiment_summary: soluble fraction after stress (log2 fold change); higher = more stays soluble; pooled small domains, quantitative proteomics
# condition_set: stress: 50 degC

Below: 3 sequences and their reported soluble fraction (log2).
• HMTINQIDPASGRKVGYWIITGEMKPKEGFSPDNKIEEGIYVNSRKSGKWIKYWPNGNVRSEIIYKNGR = -0.549
• HMDYINALTTAGITDAKVIVTAPFDVSGTAALTGIYKAYEDITGSSLNEIAKAVGVEELITTGNLA = 0.0392
• HMDTHDVQVPQEGQGLRLDLFLTDHIEGSRSFIQTIIKDGHVILNGKKAKANSRLNEGDYVVWSIPKPE = -0.0683

soluble fraction (log2) recorded for this sequence, "HMTDIKYLIADGNDIKHWDTASSSYVKVSELPLTSDKFKIYGDDIYHKERTGIIAASPILKIWSPSAE" , is 0.369

soluble fraction (log2) recorded for this sequence, "HMIDYIKYTVDGKTYELINNWDGTWSRELEAPLVAGRYDLLLEISQNGLVTYIDSSDPRYEFYLDVI" , is -3.12

soluble fraction (log2) recorded for this sequence, "HMYTPDYLSDLMVRMAHHSTAIEGNTLTQGETKSVLVDGYIPRAMDMRELNEVLNYKAFMTFLVE" , is -0.0969

soluble fraction (log2) recorded for this sequence, "HMISAQEQALRNLKLSNGMTWKALAKALGITERSILSYVAAPGTKGYREMPAEVWHKLENISGH" , is 0.165

soluble fraction (log2) recorded for this sequence, "HMQDTRSHARKMLAAIEALLEGRSGSDIQAYTIHNRSITKMTVPELVKWRSYYQQQVRSEDAAASLA" , is -0.129

soluble fraction (log2) recorded for this sequence, "HMRVTEIDYGAFMKMIEEKNIGEVKVEDYEIVFTDKDNKNIYKTGIMDDPDLTQRLYNSGAVFA" , is 0.0247

soluble fraction (log2) recorded for this sequence, "HMKVFREERLQLILEKLIHEKKVVVSDLVKYFNVSPSLIRMDLAELEKRDLILRTHGGAILPD" , is -2.23

----------
# experiment_summary: soluble fraction after stress (log2 fold change); higher = more stays soluble; pooled small domains, quantitative proteomics
# condition_set: stress: 50 degC
Binary call on soluble fraction (log2): label 1 from -0.01 upward, label 0 beneath that.

Check out these entries, answers already filled in.
• HMLSDFHLNHDSIVNHTVQKKETIFSLSKKYGLSINEIIKANPGIQIDKLKRRSILIIPLRKK = label 0
• HMNSLPFSNFMNEVEAGRVVEVKIQGNNISGVLANGKTFSTYSPNYPELVEKLSSNGVSIVATPQ = label 1
• HMNTLSPVRILAILDGRSSMAEWQLAEELGVSIDNLSEILNKMSTDGQIRLVPSEDGRMVVP = label 1

Prompt: Threshold query (soluble fraction (log2) >= -0.01) on "HMISSKDIINDEDGARLGKIADVEIDVATGKILSVHVYRSFKLLHLFGNKDVVQIPWNKIMKIGSDVVIVE"
Completion: label 0

Prompt: Threshold query (soluble fraction (log2) >= -0.01) on "HMDYYSILGVDRNATGEDIKKAFKKKAMKYHPDRNPDNKESERKFKEAKEAYDTLSNPQKKSMYDQFGT"
Completion: label 1

Prompt: Threshold query (soluble fraction (log2) >= -0.01) on "HMYLEARVKSTTPILSKPNELGKSLGKLYTNDFVALVSLHKNGLDSYYRTANGGYINAADVVIDRDV"
Completion: label 0

Prompt: Threshold query (soluble fraction (log2) >= -0.01) on "HMTGGMVTYIIEKGEGFFSLERKFGLSENELIKLNPSLKSGLKSEMQINIPKENYDRYVASS"
Completion: label 0

Prompt: Threshold query (soluble fraction (log2) >= -0.01) on "HMTLRDRDQALEELWGQLADVPMDSETERLLEPFMGWGVGVSRDEIWHWFDRRHSKGIGHLLYS"
Completion: label 0

Prompt: Threshold query (soluble fraction (log2) >= -0.01) on "HMSKLSLREIVKKFEEQIIQLHKRGLNHSEISREIVTKNSIDLGDSHIDSLRRAISVHLQTP"
Completion: label 0

Prompt: Threshold query (soluble fraction (log2) >= -0.01) on "HMREISSDELHSLFSADQRGDLVINETTRLSIEKLYALHTPEEREAKVNELSGVLPSEAHRQLVHFLDYFD"
Completion: label 0

----------
Parameter: soluble fraction (log2). Scope: all listed entries.
# experiment_summary: soluble fraction after stress (log2 fold change); higher = more stays soluble; pooled small domains, quantitative proteomics
# condition_set: stress: 50 degC
Keep it simple and answer with nothing but the number.

Below: 5 sequences and their reported soluble fraction (log2).
• HMSDAGMNQIGDMFRAPDLMAKLAMNPATREYVSQPDFLAMMEEVKRNPSALNNHLRDPRMMNVLSVAM = -0.115
• HMSLTMPKLIGMHLFQAERTLNYYGFQYKVEGPDSASVVIDQYPKEGVTVDPHYPITLKIGPSA = -0.158
• HMGPKPVDMSPIPEGQRNQVLHDWMYGRAANHPENWGQIRSDALERGLKSGLKADEIHAITGSVARALGLE = 0.12
• HMANSREIPKLAGIEQEEAVKQLLDLDLKPVIEEITDDDTDAGDVVRTDPAAGEHVAVDTEITVFISIG = -0.421
• HMPFNLKSLADRLSHVFPGLVKMRDDIGAIIVMDKIKVTEHGVTEGGGLAADRVRAVYNEFIKEY = 0.195

soluble fraction (log2) recorded for this sequence, "HMQLHDTMKRVYEALDISEQKLAESLGLKLSTIINWQKNGISKIGINKLNQTFGLDMQWILTGQGEPFI" , is 0.116

soluble fraction (log2) recorded for this sequence, "HMSGLEDIKKKILEDAGIKKGSVKFVKVDKDYDDGIWKYEIDFVYDGKEYEYEIEVETGKILSRKTEKSD" , is -0.317

soluble fraction (log2) recorded for this sequence, "HMGSEYPSNPLASRWAKGVRLYHDEWGYGVIQAARGSEPDDYVITVRFESGAEKSFLPKFQAHSLMIVKD" , is -0.161

----------
Parameter: soluble fraction (log2). Scope: all listed entries.
# experiment_summary: soluble fraction after stress (log2 fold change); higher = more stays soluble; pooled small domains, quantitative proteomics
# condition_set: stress: 50 degC

soluble fraction (log2) recorded for this sequence, "HMHPLFRVVLAGEPNGVGLDDWLTRHEAELINGPSAIGVLTVKIAMGRRSFETVLDEIRADGETIFVEPV" , is -2.66

soluble fraction (log2) recorded for this sequence, "HMDRVSEITLTRLRDYAADGQVRTATLTHRTNVVTGTLRDGRRFSAGVPPMYGDELTTFLLDNGVRVDSDN" , is -0.167

soluble fraction (log2) recorded for this sequence, "HMENTIESLLKAKGFNDIIVTVSDKQVDVVVSDKEIADNKRAQIEDVIKRKTGLEASAITITPA" , is 0.0688

soluble fraction (log2) recorded for this sequence, "HMGAGFREAIPPALDGERIDRVVSLLAYVSRNRAAGALAAGSVSVDGEVVFQRSRRVREGEELVVTGFERE" , is -0.97

----------
# experiment_summary: soluble fraction after stress (log2 fold change); higher = more stays soluble; pooled small domains, quantitative proteomics
# condition_set: stress: 50 degC
Binary call on soluble fraction (log2): TRUE from -0.4 upward, FALSE beneath that.

Check out these entries, answers already filled in.
- HMFVVVPDLIGKTINQFEEDLSELNLKYVVSDSGNFNPEFKINAVLDQSPKANSKVKDGRKIYLTLNAS: FALSE
- HMSASIAEGTVIMLENTTNIRSGMSEDSSKVGTAYAGEKVTVVMSYAEGWTKVKWNGETGYIKTALLQL: TRUE

Prompt: Threshold query (soluble fraction (log2) >= -0.4) on "HMSAAPVGPWALSEFLDAVEKDSVERVTFDDAGKALVAVDADGGRHRVEILPSEGPEILAALRKHSVQFA"
Completion: TRUE

Prompt: Threshold query (soluble fraction (log2) >= -0.4) on "HMALTQEQLGQRLQDARKSVALTQQEVAEDLGLSRESLAQIEAGSRSVNSLEIVRLARLYGRSLSSILLE"
Completion: FALSE

Prompt: Threshold query (soluble fraction (log2) >= -0.4) on "HMKGLKERLLYFIEYKGLPVQMFEKIVGLSNAAVSKMGDNTRRSTIDKISKSFPELDVNWLLTGQGEMLSY"
Completion: TRUE

Prompt: Threshold query (soluble fraction (log2) >= -0.4) on "HMEENNIVIYITGAVKKEGIYEIKENSRISDAIEAAGGLLENANIKDINLAYIIEDGVKIYIPTNEEVNK"
Completion: TRUE

Prompt: Threshold query (soluble fraction (log2) >= -0.4) on "HMEVFTPSEANVAEAREILAAMATAKANGEGATVYKGRLVDIASIKQAEVIVRQSEMIQSAH"
Completion: TRUE

Prompt: Threshold query (soluble fraction (log2) >= -0.4) on "HMLDNHPQSKKIRALWLEMAAAGVVRDSSEQALALWVKRETGISALRWLSNEQASSVIEKLKKWQRRAAG"
Completion: FALSE

Prompt: Threshold query (soluble fraction (log2) >= -0.4) on "HMIYAEDFVGRQGTANTILRPSGRIEIEGEVYDAYTRGEYVEAGERVVVISQEGSTLKVRVV"
Completion: FALSE

Prompt: Threshold query (soluble fraction (log2) >= -0.4) on "HMSDTSELESIIAQIIEDNPKSIEDIGAGNQKAYGFLTGQVMKATKGQANPQVANKIIRELVARKLE"
Completion: TRUE

Prompt: Threshold query (soluble fraction (log2) >= -0.4) on "HMEIVQVIAQNIQDLLDKHKISVSELSGYLGISRQTLTNYLKTTSTIDSVQLVKIADFFNIPAEYLLKDH"
Completion: FALSE

Prompt: Threshold query (soluble fraction (log2) >= -0.4) on "HMYSSASKEEIDQLMKRLILNLDAKGYFWPQDKEKSLKLYLHNLFSKLPLNSSDIRFLHGLIRALSEE"
Completion: FALSE

Prompt: Threshold query (soluble fraction (log2) >= -0.4) on "HMGDPYAILGLLPGASMEDVRHAWRRQAAENHPDRMLQRGAPPEFVEIAREKTAAINAAYARIREELSI"
Completion: TRUE

Prompt: Threshold query (soluble fraction (log2) >= -0.4) on "HMGNHMSFKMWGEQLQEAFRALETYDTQKAKTILNELVRFPIDSDITKALKGIISNIDDMMA"
Completion: FALSE

Prompt: Threshold query (soluble fraction (log2) >= -0.4) on "HMDDVGERIRKIREEKNLSLDEISKMTGFDVEFLAKIENKERQPQLGTVIKLSKALDSAFGRL"
Completion: TRUE

Prompt: Threshold query (soluble fraction (log2) >= -0.4) on "HMEYPNEIARIFNQIPELNVSAVARTLGINKSLLSSYIYGMKKPSPERTEEIKSAIRKIGQNMLAV"
Completion: FALSE

The origin of these recorded values is the domain aggregation screens of Martell et al. (2025).
